conditions: Crystal; DTA
Measured Normal melting temperature of individual entries
quantity-name: Normal melting temperature (°C)

{"compound": "OC[C@@H](O)[C@@H](O)[C@H](O)[C@@H](O)CO", "observed": 98.6}
{"compound": "C[n+]1ccn(CC#N)c1.N#Cc1nc(C(F)(F)F)[n-]c1C#N", "observed": 92.7}
{"compound": "OC[C@@H](O)[C@H](O)[C@@H](O)CO", "observed": 94.1}
{"compound": "CCCCCC[n+]1cccc2ccccc21.O=S(=O)([N-]S(=O)(=O)C(F)(F)F)C(F)(F)F [1-hexylquinolinium bis(trifluoromethylsulfonyl)amide]", "observed": 45}
